src = the supplement of paper PMC10201428

system: VchCAST RNA-guided transposition machinery (E. coli BL21(DE3) host, lacZ target); test: relative integration efficiency (T-LR orientation) vs wild-type transposon end (log2 (normalized fold change)); transposon end mutated: right end (5 bp flank + 75 bp right end); higher = more efficient transposition
Give measured relative integration efficiency (log2) for each item. Keep answers brief.
Just the number, please.

Form field: reported relative integration efficiency (log2) of ACATTTGTTGATACACCCATAAATTGATAATTACAACCATAAGTTGATATTTTTCACAACCATAAGTTGATATTTTCTCTGATCATAGTCAGACCAACATTGCTACGACCCGTATTCGCACCGACAC
-0.275

Form field: reported relative integration efficiency (log2) of ACATTTGTTGATAGAACCATATAATGATAATAACACCCATAAAATGATAATTATCACACCCAATTTAACTATAACGCTCTGATCATAGTCAGACCAACATTGCTACGACCCGTATTCGCACCGACAC
1.28

Form field: reported relative integration efficiency (log2) of ACATTTGTTGATACAACCATATATTGATATCTCCACCCATAAATTGATAATTATCACAACCATAAAATGATAATTACTCTGATCATAGTCAGACCAACATTGCTACGACCCGTATTCGCACCGACAC
-0.483

Form field: reported relative integration efficiency (log2) of ACATTTGTTGATAAAACCATAAAATGATAATTAGACCCATAAATTGATAATTATCACACCCATAAATTGATATTGCCTCTGATCATAGTCAGACCAACATTGCTACGACCCGTATTCGCACCGACAC
-1.02

Form field: reported relative integration efficiency (log2) of ACATTTGTTGATACAACCATAAAATGATAATTCAACCCATAAATTGATAATTATCACACCCATAAATTGATATTGCCTCTGATCATAGTCAGACCAACATTGCTACGACCCGTATTCGCACCGACAC
0.119

Form field: reported relative integration efficiency (log2) of ACATTTGTTGATACAACCATAAAATGATAATTACTCTGATCATAGTCAGACCACACCCATAAATTGATAATTATCACACCCATAAATTGATATTGCACATTGCTACGACCCGTATTCGCACCGACAC
-2.36

Form field: reported relative integration efficiency (log2) of ACATTTGTTGATACAACCATAAAATGATAATTACACCCATAAATTGATAAGGCGACACAAACGCCCGGTCGCGGTAAGAGGATCATAGTCAGACCAACATTGCTACGACCCGTATTCGCACCGACAC
2.27

Form field: reported relative integration efficiency (log2) of ACATTTGTTGATACAACCATAAAATGATCATTACACCCATCAATTGATAATTATCCCACCCAATTTAACTATAACGCTCTGATCATAGTCAGACCAACATTGCTACGACCCGTATTCGCACCGACAC
0.874

Form field: reported relative integration efficiency (log2) of ACATTTGTCGATACAACCCTAAAATGATAATTACACCCATAAATTGATCATTATCACACCCAATTTAACTATAACGCTCTGATCATAGTCAGACCAACATTGCTACGACCCGTATTCGCACCGACAC
0.178

Form field: reported relative integration efficiency (log2) of ACATTTGTTGATACAACCATTAAATGATAATTACACCCATAAATTGATAATAATGACACCGAATTTAACTATAACGCTCTGATCATAGTCAGACCAACATTGCTACGACCCGTATTCGCACCGACAC
1.98
